Molecular target: first bromodomain (BD1) of BRD4, wild type (human, UniProt O60885)
Test: ITC
pKd: −log10 of the molar value. No end group written: not given here.
recorded.endpoint: pKd

(a) AK(Ac)GLLLK(Ac)G [diacetylated ILF3 peptide 10 (AKacGLLLKacG)]
(b) AK(Ac)GALLK(Ac)G [ILF3 variant peptide AKacGALLKacG (aa 99-106) 15 carrying L102A]
-- ask // task: argmin of pKd over [ a , b ] Your answer should be the label attached to the chosen record.
-- reply a
(a: 3.78, b: 4.22)
